Data origin, for the record: paper PMC4051630

target: STK3 Catalytic Domain (Homo sapiens); construct: For all of them, we expressed and purified the catalytic domain separately; His-tag; made in house; host or cells: Escherichia coli; experiment: Differential Scanning Fluorimetry (DSF) Tm shift; type: binding; conditions: 2 µM protein, 10 µM inhibitor, average of 3 experiments, each in duplicate
Sequence (Q13188 27-278 limits assumed): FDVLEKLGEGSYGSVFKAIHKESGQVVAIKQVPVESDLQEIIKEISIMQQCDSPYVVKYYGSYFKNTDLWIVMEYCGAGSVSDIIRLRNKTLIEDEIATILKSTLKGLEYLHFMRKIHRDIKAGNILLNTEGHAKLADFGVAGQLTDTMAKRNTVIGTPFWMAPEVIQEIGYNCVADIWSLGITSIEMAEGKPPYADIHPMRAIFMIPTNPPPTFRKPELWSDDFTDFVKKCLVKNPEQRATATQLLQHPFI
Below, each entry is listed with its recorded Melting temperature (Tm) shift.
State just the number; it will be interpreted in degrees Celcius.

Req: Consider the compound CCN(CC)C(=O)c1ccc(Nc2nc(OCC3CCCCC3)c3[nH]cnc3n2)cc1 [Cdk2 Inhibitor IV, NU6140] and give its measured Melting temperature (Tm) shift.
Resp: 1.9

More entries:
Req: Dear colleague, I am looking for the recorded Melting temperature (Tm) shift of the following compound: CCCC(=O)Oc1ccc2[nH]c(C(=O)c3cc4ccccc4[nH]3)cc2c1
Resp: 0.5

Req: So what's the measured Melting temperature (Tm) shift for this one? CC(C)n1cnc2c(Nc3cccc(Cl)c3)nc(NCCO)nc21 [Compound 52]
Resp: 1.2

Req: Could you share which Melting temperature (Tm) shift value was measured for NC(=O)Nc1cc(-c2ccccc2)sc1C(N)=O [IKK-2 Inhibitor XI] ?
Resp: 2.4

====

Recorded Melting temperature (Tm) shift, one value per entry.
biological target: SRC Catalytic Domain (Homo sapiens, UniProt P12931); assay: Differential Scanning Fluorimetry (DSF) Tm shift; format: binding; set-up: For all of them, we expressed and purified the catalytic domain separately; His-tag; made in house; host or cells: Escherichia coli; conditions: 2 µM protein, 10 µM inhibitor, average of 3 experiments, each in duplicate
Sequence (P12931 270-523 limits assumed): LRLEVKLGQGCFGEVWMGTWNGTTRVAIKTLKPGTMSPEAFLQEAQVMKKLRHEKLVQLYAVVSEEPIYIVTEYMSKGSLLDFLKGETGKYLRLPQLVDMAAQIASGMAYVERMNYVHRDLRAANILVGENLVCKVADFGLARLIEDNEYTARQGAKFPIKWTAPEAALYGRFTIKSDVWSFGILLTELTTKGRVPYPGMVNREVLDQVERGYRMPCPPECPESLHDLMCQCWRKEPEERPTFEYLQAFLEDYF
The reply should be a number in degrees Celcius, with the unit left off.

Before answering, review these 4 worked examples.
Req: Report Melting temperature (Tm) shift for CC(C)n1cnc2c(Nc3cccc(Cl)c3)nc(NCCO)nc21 [Compound 52] please.
Resp: 0.9

Req: Need Melting temperature (Tm) shift of Cn1cc(/C=C2\C(=O)Nc3ccc(S(N)(=O)=O)cc32)c2ccccc21 [Syk Inhibitor] , thanks.
Resp: 0.1

Req: Please look up its Melting temperature (Tm) shift: CS(=O)(=O)O.Cn1cc(C2=C(c3cn(CCCSC(=N)N)c4ccccc34)C(=O)NC2=O)c2ccccc21 [Ro-31-8220]
Resp: 0.2

Req: Item under review: CN[C@@H]1C[C@H]2O[C@@](C)([C@@H]1OC)n1c3ccccc3c3c4c(c5c6ccccc6n2c5c31)C(=O)N[C@@H]4O [UCN-01] . Reported Melting temperature (Tm) shift?
Resp: 0.4

Further cases:
Req: Entry N#CCCc1ccc2c(c1)-c1[nH]c3ccc([N+](=O)[O-])cc3c1CC(=O)N2 [Alsterpaullone, 2-Cyanoethyl] has what Melting temperature (Tm) shift?
Resp: 0.2

Req: Sample COc1cc2ncnc(Nc3ccc(NC(=O)c4ccccc4)cc3)c2cc1OC [Aurora Kinase Inhibitor II] — what was its Melting temperature (Tm) shift?
Resp: 0.7

Req: For the compound shown here, N#Cc1c(-c2ccccc2)cc(-c2cc(Br)ccc2O)[nH]c1=O [PIM1 Kinase Inhibitor II] , give the reported Melting temperature (Tm) shift.
Resp: 0.0

====

target: FAK2 Catalytic Domain (Homo sapiens, UniProt Q14289); construct: For all of them, we expressed and purified the catalytic domain separately; His-tag; made in house; host or cells: Escherichia coli; test: Differential Scanning Fluorimetry (DSF) Tm shift; type: binding; conditions: 2 µM protein, 10 µM inhibitor, average of 3 experiments, each in duplicate
Sequence (Q14289 425-683 limits assumed): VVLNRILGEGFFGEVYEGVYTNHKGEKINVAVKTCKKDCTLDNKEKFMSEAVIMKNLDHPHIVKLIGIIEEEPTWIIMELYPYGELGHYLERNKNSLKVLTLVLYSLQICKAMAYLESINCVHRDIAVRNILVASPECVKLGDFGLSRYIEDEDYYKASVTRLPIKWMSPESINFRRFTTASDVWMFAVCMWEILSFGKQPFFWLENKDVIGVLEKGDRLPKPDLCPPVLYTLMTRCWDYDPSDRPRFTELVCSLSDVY
Assign class by Melting temperature (Tm) shift: not lower than 0.5 degrees Celcius means 1; lower than 0.5 degrees Celcius means 0.

Req: // inclusive: Melting temperature (Tm) shift at least 0.5 degrees Celcius? input: CCCC(=O)Oc1ccc2[nH]c(C(=O)c3cc4ccccc4[nH]3)cc2c1
Resp: 0

Next:
Req: Is Melting temperature (Tm) shift for O=C1NC(=O)C(=Cc2cccc(C(F)(F)F)c2)S1 [PIM1/2 Kinase Inhibitor V] at or above 0.5 degrees Celcius?
Resp: 0

Req: Assess whether reported Melting temperature (Tm) shift for CCN1/C(=C/C(C)=O)Sc2ccc(OC)cc21 [Cdc2-Like Kinase Inhibitor, TG003] sits at 0.5 degrees Celcius or higher.
Resp: 0

Req: Check the entry O=C1NC(=O)c2c1c1c3ccccc3n3c1c1c2c2ccccc2n1C1CCC3O1 [SB 218078] : does Melting temperature (Tm) shift equal or exceed 0.5 degrees Celcius?
Resp: 1

Req: Item Cl.NCCCn1cc(C2=C(c3c[nH]c4ccccc34)C(=O)NC2=O)c2ccccc21 [Bisindolylmaleimide III, Hydrochloride] with Melting temperature (Tm) shift of 0.5 degrees Celcius or above?
Resp: 1

Req: Is it the case that CC(C)n1cnc2c(Nc3cccc(Cl)c3)nc(NCCO)nc21 [Compound 52] has Melting temperature (Tm) shift reaching or exceeding 0.5 degrees Celcius?
Resp: 1

Req: Melting temperature (Tm) shift >= 0.5 degrees Celcius for O=C1NC(=O)C(=Cc2ccc(-c3ccc(F)cc3O)o2)S1 [PI 3-Kγ/CKII Inhibitor] ?
Resp: 0
